- Tested on: human acute myeloid leukemia cell line MOLM-13
- ASSAY_PROTOCOL: Cytotoxicity, WST-1 and nuclear morphology (Example 73)
- Type: cell-based
- CONDITION_CONTEXT: Homo sapiens; MOLM-13, 19% O2, 24 hours of incubation; read-out: EC50 (μM) MOLM-13 19% O2
ENDPOINT_NAME: EC50

1) CC(C)(C)C(=O)Oc1cccc2c1[n+]([O-])c1cccc(OC(=O)C(C)(C)C)c1[n+]2[O-] [Example 16d] | 11 µM
2) Cc1cc2c(cc1C)[n+]([O-])c1c(O)cccc1[n+]2[O-] [Example 48] | 2.8 µM
3) CCOC(=O)COc1cccc2c1[n+]([O-])c1cc(Br)c(Br)cc1[n+]2[O-] [Example 6d] | 2.4 µM
4) CCOC(=O)Oc1cccc2c1[n+]([O-])c1cccc(OC(=O)OCC)c1[n+]2[O-] [Example 16e] | 6.1 µM
5) O=C(O)COc1cccc2c1[n+]([O-])c1cccc(O)c1[n+]2[O-] [Example 7] | 54 µM
6) Oc1cccc2nc3c(O)cccc3nc12 [Example 1b, 1,6-dihydroxyphenazine] | 100 to 120 µM
7) Cc1c(C)[n+](O)c2c(O)cccc2[n+]1[O-] [Example 12] | > 200 µM
8) [O-][n+]1c2ccccc2[n+]([O-])c2c(O)cccc21 [Example 17, 1-hydroxyphenazine 5,10-dioxide] | 11 µM
